# target_desc: recombinant soluble homotrimeric HA of A/Japan/305/57 (H2N2) (Influenza A virus A/Japan/305/1957(H2N2))
# assay_overview: HA microarray, BCC supernatant
# experimental_setup: remark: other sources report otherwise
Recorded Trimeric HA Binding: RLU values for a group of binders are listed next.
Please reply with the bare figure in RLU and do not write the unit itself.

Past entries and their recorded results:
{"columns": ["binder", "measured_result"],
 "data": [
  ["TCN-539 (5056_A08) (antibody, V domains shown) VH: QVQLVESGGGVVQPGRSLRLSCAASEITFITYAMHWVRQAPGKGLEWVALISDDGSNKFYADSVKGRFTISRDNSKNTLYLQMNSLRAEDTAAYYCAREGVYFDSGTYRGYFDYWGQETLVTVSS VL: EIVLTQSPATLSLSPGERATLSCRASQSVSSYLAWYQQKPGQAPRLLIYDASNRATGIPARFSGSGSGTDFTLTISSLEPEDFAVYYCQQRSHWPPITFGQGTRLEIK", 468],
  ["TCN-536 (5095_N01) (antibody, V domains shown) VH: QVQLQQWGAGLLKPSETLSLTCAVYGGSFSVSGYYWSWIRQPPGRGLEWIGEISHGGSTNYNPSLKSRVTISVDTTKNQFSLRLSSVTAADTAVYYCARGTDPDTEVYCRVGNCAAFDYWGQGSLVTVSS VL: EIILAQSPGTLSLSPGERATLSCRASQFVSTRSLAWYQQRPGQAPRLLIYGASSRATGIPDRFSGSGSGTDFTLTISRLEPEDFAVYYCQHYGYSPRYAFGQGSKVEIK", 121],
  ["TCN-545 (5082_I15) (antibody, V domains shown) VH: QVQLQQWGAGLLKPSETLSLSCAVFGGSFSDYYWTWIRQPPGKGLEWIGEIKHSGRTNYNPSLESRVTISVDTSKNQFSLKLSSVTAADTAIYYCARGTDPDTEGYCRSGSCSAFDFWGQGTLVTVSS VL: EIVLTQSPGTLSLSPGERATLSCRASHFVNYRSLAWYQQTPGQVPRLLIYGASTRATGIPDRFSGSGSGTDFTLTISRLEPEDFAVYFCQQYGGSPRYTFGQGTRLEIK", 157],
  ["TCN-530 (5248_H10a) (antibody, V domains shown) VH: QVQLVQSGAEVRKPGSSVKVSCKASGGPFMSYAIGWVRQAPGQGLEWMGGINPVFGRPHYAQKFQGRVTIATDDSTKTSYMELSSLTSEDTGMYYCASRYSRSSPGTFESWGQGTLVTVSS VL: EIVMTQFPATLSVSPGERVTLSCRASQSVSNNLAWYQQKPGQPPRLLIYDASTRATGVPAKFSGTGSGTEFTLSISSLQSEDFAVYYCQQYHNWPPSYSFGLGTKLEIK", 47000],
  ["TCN-534 (5249_B02) (antibody, V domains shown) VH: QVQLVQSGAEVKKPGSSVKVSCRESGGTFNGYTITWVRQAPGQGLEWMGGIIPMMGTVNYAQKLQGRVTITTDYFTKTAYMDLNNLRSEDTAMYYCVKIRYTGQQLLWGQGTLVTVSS VL: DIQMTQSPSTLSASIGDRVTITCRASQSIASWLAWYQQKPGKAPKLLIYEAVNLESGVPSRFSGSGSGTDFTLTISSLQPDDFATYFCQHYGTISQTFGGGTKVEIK", 50600]
]}

Could you now look at the following binder, please?
Note to self: Trimeric HA Binding: RLU recorded for TCN-521 (3280_D18) (antibody, V domains shown) VH: EVQLVQSGGGLVQPGGSLRLACVVSGFTVTSNYITWVRQAPGKGLEWVSVIYSHGRAYYSASVNGRFTISRHTSKNTVYLEMNSLRPEDTAVYYCAGGGLVGGYDEYFFDYWGQGTLATVSS VL: ETVLTQSPGTLSLTPGERATLSCRVGQSVSGSHLAWYQQKPGQAPRLLIYGASSRATGIPDRFGGSVSGTDFTLTISRLEPEDSAVYYCQQYGDSRYTFGQGTKLEIK was 6730
